pIC50: −log10 of the molar value.
Below are pIC50 values for Cyclin-dependent kinase 9 (Homo sapiens, UniProt P50750) collected from several publications.
experimental-readout: pIC50

- CC1(C)Cc2c(-c3cc(NC(=O)Cc4cccc(C#N)n4)ncc3Cl)cnn2C1: 8.77
- COc1ccccc1-c1ncnc(Nc2ccc(CS(N)(=O)=O)cc2)n1: 6.72
- C[C@H](N)C(=O)N1C[C@H]2CC(C(=O)Nc3cc(-c4cnn5c4CC(C)(C)C5)c(Cl)cn3)C[C@H]2C1 (some centres unmarked): 8.55
- CCn1cc(-c2ccnc(Nc3ccc(O)cc3)n2)c2ccnc(Cl)c21: 7.02
- O=C1CCC(N2C(=O)c3cccc(OCC(=O)N4CCC(NC(=O)CN5CCC(NC(=O)c6n[nH]cc6NC(=O)c6c(Cl)cccc6Cl)CC5)CC4)c3C2=O)C(=O)N1 (centres unmarked): 8.52
- CC(=O)N[C@@H]1CCC[C@H](C(=O)Nc2cc(-c3cc(C(N)=O)n4c3CC(C)(C)C4)c(Cl)cn2)C1: 8.55

====

// molecules with log10 of IC50 on Cyclin-dependent kinase 9 (Homo sapiens, UniProt P50750), multi-source literature
experimental-readout: log10 of IC50 (log10 of the value in nM)

• CCn1cc(-c2ccnc(Nc3cccc(C(N)=O)c3)n2)c2cccnc21 = 2.04
• CCCn1cc(-c2ccnc(Nc3cccc(S(N)(=O)=O)c3)n2)c2nc(Cl)cc(C)c21 = 1.61
• CC(=O)N[C@@H]1CCC[C@H](C(=O)Nc2cc(-c3cc(C(N)=O)n4c3CC(C)(C)C4)ccn2)C1 = 0.46
• CC1(C)Cc2c(-c3cc(NC(=O)Cc4cccnc4)ncc3Cl)cnn2C1 = 0.49
• CC1(C)Cc2c(-c3cc(NC(=O)[C@@H]4CCC[C@H](c5cccnc5)C4)ncc3Cl)cnn2C1 (single isomer, unassigned) = 0.85

====

Record: compiled pIC50 on Cyclin-dependent kinase 9 (Homo sapiens, UniProt P50750) from multiple reports.
pIC50: −log10 of the molar value.
experimental-readout: pIC50

* C[C@H](C(=O)Nc1cc(-c2cnn3c2CC(C)(C)C3)c(Cl)cn1)c1cccc(C#N)n1 | 7.35
* CCCn1cc(-c2ccnc(Nc3ccc(C)c(S(=O)(=O)N4CCOCC4)c3)n2)c2cccnc21 | 6.00
* CC1(C)Cc2c(-c3cc(NC(=O)[C@@H]4C[C@H]5C[C@H](C(N)=O)C[C@H]5C4)ncc3Cl)cc(C(N)=O)n2C1 | 8.00
* NS(=O)(=O)Cc1cccc(Nc2ncnc(-c3ccccc3OCc3ccncc3)n2)c1 | 8.05
* CCCn1cc(-c2ccnc(Nc3ccc(S(N)(=O)=O)cc3)n2)c2nc(Cl)cc(C)c21 | 7.24
* O=C1CCC(N2C(=O)c3cccc(OCC(=O)N4CCC(C(=O)N5CCC(NC(=O)c6n[nH]cc6NC(=O)c6c(Cl)cccc6Cl)CC5)CC4)c3C2=O)C(=O)N1 (centres unmarked) | 8.78
* CC(=O)N[C@@H]1C[C@@H]2C[C@H](C(=O)Nc3cc(-c4cc(C#N)n5c4CC(C)(C)C5)c(Cl)cn3)C[C@@H]2C1 (single isomer, unassigned) | 7.98
* CCn1cc(-c2ccnc(Nc3cccc(C#N)c3)n2)c2cccnc21 | 6.82
* C[C@@H](N)C(=O)N1C[C@H]2CC(C(=O)Nc3cc(-c4cnn5c4CC(C)(C)C5)c(Cl)cn3)C[C@H]2C1 (some centres unmarked) | 8.43
* COc1cc(F)ccc1-c1ncnc(Nc2cccc(CS(N)(=O)=O)c2)n1 | 7.97
* COCCOCCOc1cc2ncn(-c3ccc(C#N)cn3)c2nc1NC1CCOCC1 | 5.64
* COc1ccccc1-c1ncnc(Nc2cccc([N+](=O)[O-])c2)n1 | 6.71
* CCCn1cc(-c2ccnc(Nc3cccc(S(N)(=O)=O)c3)n2)c2ccncc21 | 9.22
* COCCOCCOc1cc2ncn(-c3ccc(C#N)cn3)c2nc1N[C@H]1CC[C@@](C)(O)CC1 | 5.86
* N#Cc1ccc(-n2cnc3cc(OCCOCCO)c(NC4CCCC(O)C4)nc32)nc1 (centres unmarked) | 5.99
* C[C@@H](C(=O)Nc1cc(-c2cnn3c2CC(C)(C)C3)c(Cl)cn1)c1ccnc(C(C)(C)O)c1 | 8.52
* CCn1cc(-c2ccnc(Nc3cccc(O)c3)n2)c2cccnc21 | 6.35
* N#Cc1cc2cnc(Nc3ccc4c(c3)CCNC4)nc2n(C2CCCC2)c1=O | 7.70
* CC(=O)N1C[C@H]2CC(C(=O)Nc3cc(-c4cc(C(N)=O)n5c4CC(C)(C)C5)ccn3)C[C@H]2C1 (single isomer, unassigned) | 8.32
* CCn1cc(-c2ccnc(Nc3cccc(O)c3)n2)c2ccccc21 | 7.54
* C=CC(=O)Nc1ccc(C(=O)Nc2n[nH]c3c2CN(C(=O)N[C@H](CN(C)C)C2CCOCC2)C3(C)C)cc1 | 5.40
* CC(=O)N[C@H]1C[C@@H]2C[C@@H](C(=O)Nc3cc(-c4cc(C(N)=O)n5c4CC(C)(C)C5)c(F)cn3)C[C@@H]2C1 | 8.31
* CC(=O)N[C@H]1C[C@@H]2C[C@@H](C(=O)Nc3cc(-c4cc(C(N)=O)n5c4CC(C)(C)C5)c(Cl)cn3)C[C@@H]2C1 (single isomer, unassigned) | 8.42
* O=C1Nc2cc(S(=O)(=O)Cc3c(Cl)cccc3Cl)ccc2S/C1=C\c1ccc(O)c([N+](=O)[O-])c1 | 7.03
